Tested on: M14 melanoma
Assay: NCI tumour cell line growth inhibition, 48 h
TGI values by entry
Please reply with the bare figure in µM and do not write the unit itself.

# compound, value-unit, TGI
measured = [
    ("N#CC1=C(N)N(c2ccccc2)C(c2ccccc2)C1(C#N)C#N (stereo not given)", "µM", 44.9),
    ("O=[N+]([O-])/C(C(Cl)=C(Cl)Cl)=C(\\N1CCCCC1)n1cncn1", "µM", 33.7),
    ("O=c1cccc(C#CC#CC2=CCCCC2)o1", "µM", 6.34),
]

Here's the next entry for you.
For the compound CCC/C(Cl)=N\OC(=O)Nc1ccc(OC(F)(F)F)cc1 , the measured TGI on M14 melanoma was 18.5

###

Test system: MDA-MB-231 breast
Test: NCI tumour cell line growth inhibition, 48 h; in the data active means GI50 below about 0.43 µM; inactive means the rest
Valid outcomes are listed here; reply with one: active, inactive

Reference set, count: 4
# record-smiles, assigned-class
rows = [
    ("CCCCON(OC(=O)c1ccc2ccc3cccc4ccc1c2c34)C(C)=O", "inactive"),
    ("CC(=O)N[C@H]1CSSC[C@@H](C(N)=O)NC(=O)[C@H](C(C)C)NC(=O)[C@H](C)NC(=O)[C@H](Cc2cnc[nH]2)NC1=O", "inactive"),
    ("CC1=C[C@H]2c3c(c(O)c(O)c4oc(-c5ccccc5)cc(=O)c34)[C@H](c3cc(O)c(O)c4oc(-c5ccccc5)cc(=O)c34)[C@H]2C(C)(C)C1", "inactive"),
    ("CC(C)(C[C@H]1CN(S(=O)(=O)c2cccc(C(F)(F)F)c2)c2cc(-c3cc(F)cc(OC(F)F)c3)ccc2O1)C(=O)O", "inactive"),
]

What classification did Cc1ncc(CCCN(C)C)cc1Nc1ncc2c(n1)-c1ccc(C(F)(F)F)cc1NC(=S)C2 end up with in this test? active

Query: recorded result category for CC/C=C\C[C@H]1C/C=C2/C(=O)C=C[C@@H]2C/C=C\CCCC(=O)O1 in this test inactive

GET /call?item= COc1cc(/C=C/c2cc(/C=C/c3ccc(O)c(OC)c3)n(C(=O)Nc3ccc(C)cc3C)n2)ccc1O returns the recorded outcome of this test. inactive

Recorded test outcome, item O=C(/C=C\c1ccc(NCc2ccc(C(=O)O)cc2)cc1)CCl inactive

###

Tested on: K-562 leukemia
Experiment: NCI tumour cell line growth inhibition, 48 h
Reported TGI values for the following molecules.

The recorded TGI for entry CCn1c(SCc2ccc(C)cc2)nnc1-c1nn(-c2ccc(Cl)cc2Cl)c(-c2ccc(Cl)cc2)c1C equals 10.4 µM

Sure, the documented TGI for CN(C)C(=O)[C@H](O)[C@H](Cc1ccccc1)NC(=O)c1cc2cc(Cl)ccc2[nH]1 is > 100 µM

###

The entries below are paired with their reported TGI.
Test system: HT29 colon
Experiment: NCI tumour cell line growth inhibition, 48 h
Please reply with the bare figure in µM and do not write the unit itself.

Sample answers from the record:
# compound, value-unit, TGI
records = [
    ("O=C(/C=C\\c1ccc(NCc2ccc(C(=O)O)cc2)cc1)CCl", "µM", 37.8),
    ("CCOc1cc(C(C)(C)C)ccc1C1=N[C@@](C)(c2ccc(Cl)cc2)[C@@](C)(c2ccc(Cl)cc2)N1C(=O)N1CCN(CCCS(C)(=O)=O)CC1", "µM", 9.28),
]

Field: next compound
// TGI value for O=C(c1ccccc1)C1OC12C(=O)Nc1ccccc12 (stereo not given) : 37.9
